# assayedTarget: murine IL-21R expressed on cells (murine, UniProt Q9JHX3 20-529)
# Sequence (Q9JHX3 20-529 limits assumed): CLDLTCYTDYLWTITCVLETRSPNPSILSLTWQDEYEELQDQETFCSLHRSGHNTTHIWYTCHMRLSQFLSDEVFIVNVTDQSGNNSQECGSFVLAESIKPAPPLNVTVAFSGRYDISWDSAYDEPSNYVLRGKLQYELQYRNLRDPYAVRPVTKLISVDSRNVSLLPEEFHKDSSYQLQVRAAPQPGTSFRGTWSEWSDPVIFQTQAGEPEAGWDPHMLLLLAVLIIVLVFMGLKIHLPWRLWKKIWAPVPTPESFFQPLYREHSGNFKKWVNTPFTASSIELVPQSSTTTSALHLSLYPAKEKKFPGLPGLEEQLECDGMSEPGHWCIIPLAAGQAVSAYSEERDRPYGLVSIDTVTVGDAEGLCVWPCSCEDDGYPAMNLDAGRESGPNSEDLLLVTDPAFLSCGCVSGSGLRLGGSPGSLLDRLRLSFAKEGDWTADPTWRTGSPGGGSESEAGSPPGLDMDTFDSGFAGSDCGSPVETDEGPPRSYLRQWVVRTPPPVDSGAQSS
# protocolSummary: cell-based or functional assay
Readings of IC50 (nM) in Murine IL-21R-BaF3 Neutralization Assay for the listed binders
Give the quantity in nM, number only.

binder	testResult
scFv L18 (scFv) scFv: QVQLQESGPGLVKTSETLSLTCAVSGYSISSGYYWGWIRQPPGKGLEWIGSISHTGNTYYNPPLKSRVTISVDTSKNQFSLKLSSVTAADTAVYYCARGGGISRPEYWGKGTLVTVSSGGGGSGGGGSGGGGSALSSELTQDPPVSVALGQTVTLTCQGDSLRTYYASWYQQKSGQAPILLLYGKHKRPSGIPDRFSGSTSGDTASLTITGAQAEDEADYYCVTRSVKGNPHVLFGGGTQLTVL	8.34
scFv L14 (scFv) scFv: QVQLQESGPGLVKTSETLSLTCAVSGYSISSGYYWGWIRQPPGKGLEWIGSISHTGNTYYNPPLKSRVTISVDTSKNQFSLKLSSVTAADTAVYYCARGGGISRPEYWGKGTLVTVSSGGGGSGGGGSGGGGSALSSELTQDPPVSVALGQTVTLTCQGDSLRTYYASWYQQKSGQAPILLLYGKHKRPSGIPDRFSGSTSGDTASLTITGAQAEDEADYYCMARSRKGNPHVLFGGGTQLTVL	6.49

As a next step, examine the binder that follows.
Prompt: State its IC50 (nM) in Murine IL-21R-BaF3 Neutralization Assay: scFv L20 (scFv) scFv: QVQLQESGPGLVKTSETLSLTCAVSGYSISSGYYWGWIRQPPGKGLEWIGSISHTGNTYYNPPLKSRVTISVDTSKNQFSLKLSSVTAADTAVYYCARGGGISRPEYWGKGTLVTVSSGGGGSGGGGSGGGGSALSSELTQDPPVSVALGQTVTLTCQGDSLRTYYASWYQQKSGQAPILLLYGKHKRPSGIPDRFSGSTSGDTASLTITGAQAEDEADYYCVSRSAKGNPHVLFGGGTQLTVL
Completion: 15.4
